# Tested on: Human immunodeficiency virus 1
# assay.text: Ratio of IC50 for darunavir-resistant HIV1 derived from 51 passages harboring protease L10I/I15V/K20R/L24I/V32I/L33F/M36I/M46L/I54M/L63P/K70Q/V82I/I84V/L89M mutant infected in human MT4 cells to IC50 for wild type HIV1 NL4.3 infected in human MT4 cells
# Format: functional
Reported Ratio IC50 values are given for each entry in this list.
Output: the number by itself.

{"compound": "CC(C)CN(C[C@@H](O)[C@H](Cc1ccccc1)NC(=O)O[C@H]1CO[C@H]2OCC[C@H]21)S(=O)(=O)c1ccc2nc(NC3CC3)sc2c1", "Ratio IC50": 240}

Now let's try a different one.
Which Ratio IC50 reading was recorded for the compound CC(C)CN(C[C@@H](O)[C@H](Cc1ccccc1)NC(=O)O[C@H]1C2CO[C@H]3OCC1C3C2)S(=O)(=O)c1ccc2nc(NC3CC3)sc2c1 (some centres undefined) ?
90
